# Test system: K562 (Human chronic myelogenom leukemia)
# Measurement Protocol: LDH assay cytotoxicity, K562
# Assay type: cell-based
# Condition Summary: K562, read-out: IC50 K562
Rule: IC50 below 2000 nM gives true. Equal to or above 2000 nM gives false.

Query: IC50 under 2000 nM? Item: O=[N+]([O-])c1ccc(N=NNCCO)cc1 [E]
Reply: false

Query: I'd appreciate it if you could check whether N#Cc1ccccc1N=NNc1ccccc1C#N [D, 1,3-bis (2-cyanophenyl) triazene] has IC50 smaller than 2000 nM.
Reply: true

Query: In the record for CCOc1ccccc1N=NNc1ccccc1OCC [C, 1,3-bis(2-ethoxyphenyl)triazene] , is IC50 less than 2000 nM?
Reply: true

Query: Hello, is IC50 of the following compound strictly smaller than 2000 nM? c1ccc(N=NNc2ccccc2)cc1 [G, 1,3-diphenyltriazene]
Reply: false

Query: Dear reviewer, please state whether O=[N+]([O-])c1ccc(N=NNc2ccccc2O)cc1 [B] has IC50 strictly beneath 2000 nM.
Reply: true

Query: Consider the compound O=[N+]([O-])c1ccc(N=NNc2cccc(O)c2)cc1 [A] . Is its IC50 strictly less than 2000 nM?
Reply: false

Query: Could you please tell me whether IC50 recorded for COc1ccccc1N=NNc1ccccc1OC [F, 1,3-Bis(2-methoxyphenyl)triazene] is less than 2000 nM?
Reply: true

Query: Strictly below 2000 nM: is that where IC50 of Cn1nnc2c(C(N)=O)ncn2c1=O [TMZ, Temozolomide, reference compound] sits?
Reply: false
